Values compiled from paper PMC5620620.

test system: P-gp (human MDR1); construct: host or cells: MDCKII (canine kidney) cells transfected with human MDR1 cDNA; assay: Bidirectional transport of tritiated compounds in MDCKII-MDR1 cells; type: in vitro ADME; details: dog, MDCK-MDR1
Metric name: Papp B→A at 2 h, 0.05 µM

Input: Given the compound C[C@H]1O[C@@H](O[C@H]2[C@@H](O)C[C@H](O[C@H]3[C@@H](O)C[C@H](O[C@H]4CC[C@@]5(C)[C@H](CC[C@@H]6[C@@H]5C[C@@H](O)[C@]5(C)[C@@H](C7=CC(=O)OC7)CC[C@]65O)C4)O[C@@H]3C)O[C@@H]2C)C[C@H](O)[C@@H]1O [[^3H]Digoxin, digoxin] , what is its reported Papp B→A at 2 h, 0.05 µM?
Output: > 15 ×10⁻⁶ cm/s

###

experiment: Log D7.4; format: physicochemical; conditions: pH 7.4, this study
Metric name: logD
Respond numerically, and do not add a unit to the figure.

Input: Given the compound COc1cc2c(cc1OC)CN(CC/C=C1\CCCc3c(OCCF)cccc31)CC2 [MC198] , what is its reported logD?
Output: 2.3

Input: Given the compound COc1cc2c(cc1OC)CN(CCCCOc1ccc(-c3ccc(OCCF)cc3)cc1)CC2 [KE64] , what is its reported logD?
Output: 3.2

###

target: P-gp (MDR1) (Homo sapiens, UniProt P08183); construct: host or cells: MDCKII (canine kidney) cells transfected with human MDR1 cDNA; assay: Bidirectional transport of tritiated compounds in MDCKII-MDR1 cells; assay type: in vitro ADME; details: human, MDCK-MDR1; read-out: ER 0.01 µM
Sequence (P08183 whole entry): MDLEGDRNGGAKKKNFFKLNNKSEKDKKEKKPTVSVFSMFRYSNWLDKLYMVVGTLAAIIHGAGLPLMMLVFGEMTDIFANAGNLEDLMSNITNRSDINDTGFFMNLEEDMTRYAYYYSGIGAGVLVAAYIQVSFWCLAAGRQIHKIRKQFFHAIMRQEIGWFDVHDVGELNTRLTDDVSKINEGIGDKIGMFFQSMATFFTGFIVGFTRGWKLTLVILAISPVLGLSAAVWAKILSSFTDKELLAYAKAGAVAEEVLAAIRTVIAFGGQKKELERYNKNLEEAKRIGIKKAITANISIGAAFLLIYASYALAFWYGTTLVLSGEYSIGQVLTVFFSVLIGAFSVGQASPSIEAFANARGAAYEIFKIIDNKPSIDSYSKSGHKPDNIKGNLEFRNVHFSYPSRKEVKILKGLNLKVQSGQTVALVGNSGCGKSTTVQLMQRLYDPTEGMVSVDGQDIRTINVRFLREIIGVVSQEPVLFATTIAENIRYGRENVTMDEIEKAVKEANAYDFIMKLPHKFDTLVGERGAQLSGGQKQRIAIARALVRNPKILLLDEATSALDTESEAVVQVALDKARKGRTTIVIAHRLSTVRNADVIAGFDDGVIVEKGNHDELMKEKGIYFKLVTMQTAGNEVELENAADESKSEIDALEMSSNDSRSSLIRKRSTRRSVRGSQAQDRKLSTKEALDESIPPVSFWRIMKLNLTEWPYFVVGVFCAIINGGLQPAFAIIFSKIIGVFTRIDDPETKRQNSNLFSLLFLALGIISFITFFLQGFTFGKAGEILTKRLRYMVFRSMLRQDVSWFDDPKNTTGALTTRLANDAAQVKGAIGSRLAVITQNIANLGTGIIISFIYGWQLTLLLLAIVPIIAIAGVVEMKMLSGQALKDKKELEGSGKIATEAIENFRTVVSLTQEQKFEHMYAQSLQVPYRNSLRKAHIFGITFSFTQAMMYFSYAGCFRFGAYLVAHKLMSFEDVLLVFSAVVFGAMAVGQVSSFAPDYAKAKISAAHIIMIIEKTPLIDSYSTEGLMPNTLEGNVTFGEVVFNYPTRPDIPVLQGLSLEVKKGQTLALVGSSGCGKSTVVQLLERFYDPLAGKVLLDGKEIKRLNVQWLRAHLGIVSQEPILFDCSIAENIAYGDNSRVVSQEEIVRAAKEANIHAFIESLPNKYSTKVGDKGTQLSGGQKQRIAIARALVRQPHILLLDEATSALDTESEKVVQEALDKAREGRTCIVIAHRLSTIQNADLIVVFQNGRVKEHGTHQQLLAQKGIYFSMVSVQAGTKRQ
For each record, write down the corresponding efflux ratio at 2 h, 0.01 µM.
Respond numerically, and do not add a unit to the figure.

Input: Given the molecule COc1ccc(CCN(CCF)CCC[C@](C#N)(c2ccc(OC)c(OC)c2)C(C)C)cc1OC [N-FeVer, (R)-N-[^18F]fluoroethylverapamil] , what is its reported efflux ratio at 2 h, 0.01 µM?
Output: 2.8

Input: Given the molecule COc1cc2c(cc1OC)CN(CC/C=C1\CCCc3c(OCCF)cccc31)CC2 [MC198] , what is its reported efflux ratio at 2 h, 0.01 µM?
Output: 2.1

Input: Given the molecule COc1cc2c(cc1OC)CN(CCCCOc1ccc(-c3ccc(OCCF)cc3)cc1)CC2 [KE64] , what is its reported efflux ratio at 2 h, 0.01 µM?
Output: 1.9

Input: Given the molecule COc1ccc([C@@](C#N)(CCCNCCc2ccc(OCCF)c(OC)c2)C(C)C)cc1OC [O-FeVer, (R)-O-[^18F]fluoroethylnorverapamil] , what is its reported efflux ratio at 2 h, 0.01 µM?
Output: 37

###

Molecular target: P-gp (MDR1) (Homo sapiens, UniProt P08183)
Construct: host or cells: MDCKII (canine kidney) cells transfected with human MDR1 cDNA
Test: Bidirectional transport of tritiated compounds in MDCKII-MDR1 cells
Assay type: in vitro ADME
Settings: dog, MDCK-MDR1; MDCKII-MDR1 cells, 50 µM; read-out: ER
Experimental: Madin-Darby canine kidney (MDCK) II cells expressing cDNAs encoding human MDR1 (MDCKII-MDR1 cells) were obtained by TNO from the Netherlands Cancer Institute. […] Cells were counted using an automatic cell counter (Millipore, Bedford, MA, USA). […] The medium was refreshed after 48 h. […] After the integrity assessment, culture medium was removed from the filter inserts (apical compartment (A)). […] Background values were measured for each sample sequence using liquid scintillant without test samples. […]
For each record, write down the corresponding efflux ratio at 2 h, 50 µM.

Input: Given the molecule COc1ccc([C@@](C#N)(CCCNCCc2ccc(OCCF)c(OC)c2)C(C)C)cc1OC [O-FeVer, (R)-O-[^18F]fluoroethylnorverapamil] , what is its reported efflux ratio at 2 h, 50 µM?
Output: > 2

Input: Given the molecule COc1cc2c(cc1OC)CN(CC/C=C1\CCCc3c(OCCF)cccc31)CC2 , what is its reported efflux ratio at 2 h, 50 µM?
Output: < 2

###

For each record, write down the corresponding EC50.
target: P-gp (Homo sapiens, UniProt P08183); experiment: Calcein-AM inhibition assay in MDCKII-MDR1 cells; details: non-radioactive compounds
Sequence (P08183 whole entry): as above
The reply should contain only the number, in nM.

Input: Given the compound COc1ccc(CCN(CCF)CCC[C@](C#N)(c2ccc(OC)c(OC)c2)C(C)C)cc1OC [N-FeVer, (R)-N-[^18F]fluoroethylverapamil] , what is its reported EC50?
Output: 1100

Input: Given the compound COc1cc2c(cc1OC)CN(CCCCOc1ccc(-c3ccc(OCCF)cc3)cc1)CC2 , what is its reported EC50?
Output: 14

Input: Given the compound COc1cc2c(cc1OC)CN(CC/C=C1\CCCc3c(OCCF)cccc31)CC2 , what is its reported EC50?
Output: 270

Input: Given the compound COc1ccc([C@@](C#N)(CCCNCCc2ccc(OCCF)c(OC)c2)C(C)C)cc1OC [O-FeVer, (R)-O-[^18F]fluoroethylnorverapamil] , what is its reported EC50?
Output: 2400

###

Molecular target: P-gp (MDR1) (Homo sapiens)
Construct: host or cells: MDCKII (canine kidney) cells transfected with human MDR1 cDNA
Assay: Bidirectional transport of tritiated compounds in MDCKII-MDR1 cells
Assay type: in vitro ADME
Details: dog, MDCK-MDR1; MDCKII-MDR1 cells, 0.01 µM
Description: Madin-Darby canine kidney (MDCK) II cells expressing cDNAs encoding human MDR1 (MDCKII-MDR1 cells) were obtained by TNO from the Netherlands Cancer Institute. […] Cells were counted using an automatic cell counter (Millipore, Bedford, MA, USA). […] The medium was refreshed after 48 h. […] After the integrity assessment, culture medium was removed from the filter inserts (apical compartment (A)). […] Background values were measured for each sample sequence using liquid scintillant without test samples. […]
Metric name: Papp A→B at 2 h, 0.01 µM

Input: Can you look up Papp A→B at 2 h, 0.01 µM on P-gp (MDR1) (Homo sapiens) for COc1ccc([C@@](C#N)(CCCNCCc2ccc(OCCF)c(OC)c2)C(C)C)cc1OC [O-FeVer, (R)-O-[^18F]fluoroethylnorverapamil] ?
Output: < 2 ×10⁻⁶ cm/s

###

target: P-gp (MDR1) (Homo sapiens, UniProt P08183); construct: host or cells: MDCKII (canine kidney) cells transfected with human MDR1 cDNA; assay: Bidirectional transport of tritiated compounds in MDCKII-MDR1 cells; assay type: in vitro ADME; conditions: dog, MDCK-MDR1; MDCKII-MDR1 cells, 1 µM
Metric name: Papp A→B at 2 h, 1 µM

Input: Can you look up Papp A→B at 2 h, 1 µM on P-gp (MDR1) (Homo sapiens, UniProt P08183) for COc1ccc([C@@](C#N)(CCCNCCc2ccc(OCCF)c(OC)c2)C(C)C)cc1OC [O-FeVer, (R)-O-[^18F]fluoroethylnorverapamil] ?
Output: < 2 ×10⁻⁶ cm/s
